- protocol: Therapeutic index (CC50/EC50) in BHK21 cells
- Format: cell-based, BHK-21
- measurement conditions: hamster, read-out: Ratio CC50/EC50
Criterion: selectivity ratio meeting or surpassing 6. Met: yes (1). Not met: no (0).

>>> class_name("O=C(c1ccccc1)N1N=C(c2cccs2)CC1c1ccc(Cl)cc1 (stereo unspecified)")
"yes (1)"
>>> class_name("O=C(c1cccc2c(Oc3ccccc3)c3ccccc3nc12)N1CCOCC1")
"no (0)"
>>> class_name("O=C(Cc1ccc(Cl)cc1)N1N=C(c2cccs2)CC1c1ccc(Cl)cc1 (stereo unspecified)")
"yes (1)"
>>> class_name("CN1CCN(C(=O)c2ccc3c(NC4CCN(Cc5ccccc5)CC4)c4ccccc4nc3c2)CC1")
"yes (1)"
>>> class_name("O=C(c1ccccc1)N1N=C(c2ccccc2)CC1c1ccc(Cl)cc1 (stereo unspecified)")
"yes (1)"
>>> class_name("O=C(Cc1ccc(Cl)cc1)N1N=C(c2ccco2)CC1c1ccc(Br)cc1 (stereo unspecified)")
"yes (1)"
>>> class_name("COc1ccc(C2CC(c3cccs3)=NN2C(=O)Cc2ccc(Cl)cc2)cc1 (stereo unspecified)")
"yes (1)"
>>> class_name("CN1CCN(C(=O)c2ccc3nc4ccccc4c(NC4CCN(Cc5ccccc5)CC4)c3c2)CC1")
"no (0)"
>>> class_name("CC(C)(C)C(=O)N1N=C(c2cccs2)CC1c1ccc(Cl)cc1 (stereo unspecified)")
"no (0)"
>>> class_name("CN1CCN(C(=O)c2ccc3c(NCCc4c[nH]c5ccccc45)c4ccccc4nc3c2)CC1")
"yes (1)"
>>> class_name("CCN(CC)C(=O)c1ccc2nc3ccccc3c(NC3CCN(Cc4ccccc4)CC3)c2c1")
"no (0)"
>>> class_name("O=C(Cc1ccc(Cl)cc1)N1N=C(c2cccs2)CC1c1ccc([N+](=O)[O-])cc1 (stereo unspecified)")
"yes (1)"
>>> class_name("CN1CCN(C(=O)c2cccc3c(NCCc4c[nH]c5ccccc45)c4ccccc4nc23)CC1")
"yes (1)"
>>> class_name("O=C(c1ccccc1)N1N=C(c2cccs2)CC1c1ccc(F)cc1 (stereo unspecified)")
"no (0)"
>>> class_name("CN1CCN(Cc2ccc3c(c2)Oc2ccccc2C3O)CC1 (stereo unspecified)")
"yes (1)"
>>> class_name("O=C(Cc1ccccc1)N1N=C(c2cccs2)CC1c1ccc(Cl)cc1 (stereo unspecified)")
"no (0)"

###

// reported selectivity ratio per item
- protocol: Therapeutic index (CC50/EC50) in BHK21 cells
- Format: cell-based, BHK-21
- measurement conditions: hamster, read-out: Ratio CC50/EC50
reported metric: selectivity ratio

>>> result("COc1ccc(C2CC(c3cccs3)=NN2C(=O)c2ccccc2)cc1 (stereo not given)")
"> 4.8"
>>> result("CN1CCN(C(=O)c2ccc3nc4ccccc4c(NCCc4c[nH]c5ccccc45)c3c2)CC1")
6.1
>>> result("O=C(c1ccccc1)N1N=C(c2cccs2)CC1c1ccc([N+](=O)[O-])cc1 (stereo not given)")
"> 1.5"
>>> result("O=C(c1ccc([N+](=O)[O-])cc1)N1N=C(c2cccs2)CC1c1ccc(Cl)cc1 (stereo not given)")
"> 1.3"
>>> result("CN1CCN(Cc2ccc3c(c2)Oc2ccccc2C3)CC1")
"< 6.7"

Origin of values: ChEMBL document CHEMBL1138199
